B1: KRT71 (parent)
chain: FGSRSLYSLGGVRSLNVASGSGKS

variants of: B1; assay: protein stability index of a GFP-peptide fusion (GPS, HEK-293T) (PSI 1-6); higher = more stable; conditions: c terminus: a fixed tail appended;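 further: lentivirally expressed fusions sorted by FACS into six bins by GFP to DsRed ratio, PSI derived from sequencing read proportions per bin multiplied by bin number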
The entries below come with measured protein stability index values attached.

{"columns": ["variantString", "protein stability index"],
 "data": [
  ["G20Q", 1.87],
  ["R13V", 1.74],
  ["S19M", 1.88],
  ["S5Y", 1.36],
  ["R13F", 1.72],
  ["G2C", 3.47],
  ["S8G", 2],
  ["S21L", 2.11],
  ["S21W", 1.24],
  ["S5I", 2.19],
  ["S8L", 2.2],
  ["R13G", 1.45],
  ["R13A", 3.09],
  ["R4L", 1.75],
  ["S21N", 1.69],
  ["F1P", 3.92],
  ["S5Q", 2.16],
  ["S19V", 2.54],
  ["S24G", 1.97],
  ["S19F", 1.47],
  ["F1K", 4.06],
  ["L9S", 2.18],
  ["K23G", 2.09],
  ["L15D", 1.61],
  ["S24C", 1.71],
  ["F1S", 4.56],
  ["V17K", 2.01],
  ["S19H", 1.53],
  ["S5A", 2.35],
  ["L9P", 2.6],
  ["F1N", 3.85],
  ["G11K", 1.64],
  ["N16Y", 2.16],
  ["K23V", 1.88],
  ["V17M", 2.38],
  ["S5H", 2.24],
  ["S14V", 1.03],
  ["R13L", 2.27],
  ["S24A", 1.73],
  ["S14I", 1.38],
  ["G2L", 2.45],
  ["S3E", 2.22],
  ["A18L", 2.27],
  ["G10N", 2.16],
  ["S3N", 1.26],
  ["V12Y", 1.65]
]}
